Attribution: the Deep4Chem optical property database

assay: solvent given as SMILES; conditions: in CN(C)C=O
Parameter: emission maximum. Scope: all listed entries.
Measured Attribute: emission maximum (nm)

[[record]]
record_smiles = "Cc1cc(O)c(C(C)C)cc1/N=C/c1ccc(O)cc1"
measured_attribute = "emission maximum"
value = 409

[[record]]
record_smiles = "CC(C)(C)c1ccc(-c2nc3c4ccc(-c5c6ccccc6cc6ccccc56)cc4c4cc(-c5c6ccccc6cc6ccccc56)ccc4c3n2-c2ccc(C(C)(C)C)cc2)cc1"
measured_attribute = "emission maximum"
value = 451

[[record]]
record_smiles = "CCn1c2ccccc2c2cc(C#Cc3cc(C#Cc4ccc5c(c4)c4ccccc4n5CC)nc(C#N)n3)ccc21"
measured_attribute = "emission maximum"
value = 557

[[record]]
record_smiles = "O=C1NC(=O)c2c1c1c3ccccc3[nH]c1c1[nH]c3ccccc3c21"
measured_attribute = "emission maximum"
value = 503

[[record]]
record_smiles = "CCOC(=O)/C(C#N)=C/c1cc2c3ccccc3n(C)c2cc1OC"
measured_attribute = "emission maximum"
value = 486

[[record]]
record_smiles = "CN(C)c1ccc(C2=Cc3c4ccccc4c4ccccc4[n+]3[B-](F)(F)O2)cc1"
measured_attribute = "emission maximum"
value = 571

[[record]]
record_smiles = "Cc1cc(-c2ccc(-c3ccccc3)cc2)nc(-c2ccc(-n3c4ccccc4c4ccccc43)cc2)n1"
measured_attribute = "emission maximum"
value = 474

[[record]]
record_smiles = "CN(C)c1c2ccccc2cc2ccccc12"
measured_attribute = "emission maximum"
value = 392

[[record]]
record_smiles = "CCN(CC)c1ccc2cc(-c3ccc(C(F)(F)F)cc3)oc(=O)c2c1"
measured_attribute = "emission maximum"
value = 462

[[record]]
record_smiles = "CN(C)c1ccc(/C=C/C=C2\\CC/C(=C\\C=C\\c3ccc(N(C)C)cc3)C2=O)cc1"
measured_attribute = "emission maximum"
value = 715

[[record]]
record_smiles = "CCCCCCCCC1(CCCCCCCC)c2cc(C#CC#Cc3ccc(N(c4ccccc4)c4ccccc4)cc3)ccc2-c2ccc(C=O)cc21"
measured_attribute = "emission maximum"
value = 523

[[record]]
record_smiles = "CCC1=C(C)C2=C(c3c4ccccc4c(-c4ccccc4)c4ccccc34)c3c(C)c(CC)c(C)n3[B-](F)(F)[N+]2=C1C"
measured_attribute = "emission maximum"
value = 539

[[record]]
record_smiles = "c1ccc(-c2nn(-c3ccccc3)c3nc4ccc(N(c5ccccc5)c5ccccc5)cc4cc23)cc1"
measured_attribute = "emission maximum"
value = 567.21

[[record]]
record_smiles = "Oc1ccc(/N=C/c2ccccc2Oc2ccccc2)cc1"
measured_attribute = "emission maximum"
value = 423

